test: WNV antiviral assay; assay type: cell-based, West Nile Virus; conditions: read-out: TC50 (the source's name)
endpoint_label: CC50

For "O=C(CSc1nc2ccccc2c(=O)n1-c1ccccc1)Nc1ccc2c(c1)CCC2" , write its CC50.
≥ 100 µM

###

Below, each entry is listed alongside its reported CC50.
tested on: HCV Con1b (Replicon); test: HCV Con1b (Replicon) Luciferase end-point; assay type: cell-based, Hepatitis C Virus; settings: read-out: TC50 (the source's name)

Provide CC50 value for the following molecule: O=C(CSc1nc2ccccc2c(=O)n1-c1ccc(F)c(F)c1)Nc1cccc2c1CCC2 [Example C26]
≥ 100 µM

Hello, please tell me recorded CC50 for this one: O=C(CSc1nc2cccc(F)c2c(=O)n1-c1ccc(Cl)c(Cl)c1)Nc1ccc2c(c1)CCC2 [Example C31]
10 to 50 µM

Read off the recorded CC50 for Cc1cccc2c(=O)n(-c3ccccc3)c(SCC(=O)Nc3ccc4c(c3)CCC4)nc12 [Example C16]
10 to 50 µM

Give recorded CC50. O=C(CSc1nc2cccc(F)c2c(=O)n1-c1ccc(Cl)c(F)c1)Nc1ccc2c(c1)CCC2 [Example C29]
≥ 100 µM

More entries:
Recall and state the measured CC50 for O=C(CSc1nc2ccccc2c(=O)n1-c1ccc(F)c(F)c1)Nc1ccc2c(c1)CCC2 [Example C27] .
≥ 100 µM

Quickly give me recorded CC50 for O=C(CSc1nc2ccccc2c(=O)n1-c1ccc(Cl)c(Cl)c1)Nc1ccc2c(c1)OCO2 [Example C19]
≥ 100 µM

// fetch CC50 given entry O=C(CSc1nc2ccccc2c(=O)n1-c1ccc(F)c(Cl)c1)Nc1cccc2c1CCC2 [Example C22]
10 to 50 µM

Look up and report measured CC50 for this entry: O=C(CSc1nc2ccccc2c(=O)n1-c1ccc(Cl)c(Cl)c1)Nc1cccc2c1CCC2 [Example C18]
50 to 100 µM

Please give the documented CC50 of O=C(CSc1nc2ccccc2c(=O)n1-c1ccc(Cl)c(Cl)c1)Nc1nc(-c2ccccc2)cs1 [Example C45]
≥ 100 µM

Let me know recorded CC50 for O=C(CCSc1nc2ccccc2c(=O)n1-c1ccc(F)c(Cl)c1)Nc1ccc2c(c1)CCC2 [Example C21] , thanks.
10 to 50 µM

Entry O=C(CSc1nc2ccccc2c(=O)n1-c1ccc(Cl)c(Cl)c1)Nc1ccc2c(c1)CCC2 [Example C13] needs its CC50 filled in; supply it.
50 to 100 µM

In one line, give reported CC50 of the entry Cc1csc(NC(=O)CSc2nc3ccccc3c(=O)n2-c2ccc(Cl)c(Cl)c2)n1 [Example C24] .
≥ 100 µM

Give reported CC50 value for COc1cccc2c(=O)n(-c3ccccc3)c(SCC(=O)Nc3ccc4c(c3)CCC4)nc12 [Example C17]
≥ 100 µM

Consider the molecule O=C(CSc1nc2ccccc2c(=O)n1-c1ccc(Cl)c(Cl)c1)Nc1ccc2scnc2c1 [Example C46] and give its recorded CC50.
≥ 100 µM

###

assay: HCV Con1b (Replicon) Luciferase end-point; assay type: cell-based, Hepatitis C Virus; conditions: HCV Con1b subgenomic replicon cell line, read-out: TC50 (the source's name)
endpoint_label: CC50

Please supply the value of reported CC50 for the item "Cc1csc(NC(=O)CSc2nc3ccccc3c(=O)n2-c2ccc(Cl)c(Cl)c2)n1"
≥ 100 µM

###

The entries below are paired with their reported CC50.
system: HCV Con 1b (Replicon); test: HCV Con 1b (Replicon) RNA end-point; type: cell-based, Hepatitis C Virus; conditions: HCV Con 1b replicon, RNA end-point; read-out: TC50 (the source's name)

Past entries and their recorded results:
Entry O=C(CSc1nc2cccc(F)c2c(=O)n1-c1ccccc1)Nc1ccc2c(c1)CCC2 [Example C15] needs its CC50 filled in; supply it.
≥ 100 µM

Kindly indicate its recorded CC50. Item: O=C(CSc1nc2ccccc2c(=O)n1-c1ccc(Cl)c(Cl)c1)Nc1nc(-c2ccccc2)cs1 [Example C45]
50 to 100 µM

Please look at this molecule and report its CC50: O=C(CSc1nc2ccccc2c(=O)n1-c1ccc(F)c(F)c1)Nc1cccc2c1CCC2 [Example C26]
50 to 100 µM

# next molecule below
Provide only the value of recorded CC50 for O=C(CSc1nc2ccccc2c(=O)n1-c1ccc(F)c(Cl)c1)Nc1ccc2c(c1)CCC2 [Example C12]
50 to 100 µM

Source listed as patent US10611733B2.
